- test-target: Vascular endothelial growth factor receptor 2 (Homo sapiens)
- Sequence (P35968 whole entry): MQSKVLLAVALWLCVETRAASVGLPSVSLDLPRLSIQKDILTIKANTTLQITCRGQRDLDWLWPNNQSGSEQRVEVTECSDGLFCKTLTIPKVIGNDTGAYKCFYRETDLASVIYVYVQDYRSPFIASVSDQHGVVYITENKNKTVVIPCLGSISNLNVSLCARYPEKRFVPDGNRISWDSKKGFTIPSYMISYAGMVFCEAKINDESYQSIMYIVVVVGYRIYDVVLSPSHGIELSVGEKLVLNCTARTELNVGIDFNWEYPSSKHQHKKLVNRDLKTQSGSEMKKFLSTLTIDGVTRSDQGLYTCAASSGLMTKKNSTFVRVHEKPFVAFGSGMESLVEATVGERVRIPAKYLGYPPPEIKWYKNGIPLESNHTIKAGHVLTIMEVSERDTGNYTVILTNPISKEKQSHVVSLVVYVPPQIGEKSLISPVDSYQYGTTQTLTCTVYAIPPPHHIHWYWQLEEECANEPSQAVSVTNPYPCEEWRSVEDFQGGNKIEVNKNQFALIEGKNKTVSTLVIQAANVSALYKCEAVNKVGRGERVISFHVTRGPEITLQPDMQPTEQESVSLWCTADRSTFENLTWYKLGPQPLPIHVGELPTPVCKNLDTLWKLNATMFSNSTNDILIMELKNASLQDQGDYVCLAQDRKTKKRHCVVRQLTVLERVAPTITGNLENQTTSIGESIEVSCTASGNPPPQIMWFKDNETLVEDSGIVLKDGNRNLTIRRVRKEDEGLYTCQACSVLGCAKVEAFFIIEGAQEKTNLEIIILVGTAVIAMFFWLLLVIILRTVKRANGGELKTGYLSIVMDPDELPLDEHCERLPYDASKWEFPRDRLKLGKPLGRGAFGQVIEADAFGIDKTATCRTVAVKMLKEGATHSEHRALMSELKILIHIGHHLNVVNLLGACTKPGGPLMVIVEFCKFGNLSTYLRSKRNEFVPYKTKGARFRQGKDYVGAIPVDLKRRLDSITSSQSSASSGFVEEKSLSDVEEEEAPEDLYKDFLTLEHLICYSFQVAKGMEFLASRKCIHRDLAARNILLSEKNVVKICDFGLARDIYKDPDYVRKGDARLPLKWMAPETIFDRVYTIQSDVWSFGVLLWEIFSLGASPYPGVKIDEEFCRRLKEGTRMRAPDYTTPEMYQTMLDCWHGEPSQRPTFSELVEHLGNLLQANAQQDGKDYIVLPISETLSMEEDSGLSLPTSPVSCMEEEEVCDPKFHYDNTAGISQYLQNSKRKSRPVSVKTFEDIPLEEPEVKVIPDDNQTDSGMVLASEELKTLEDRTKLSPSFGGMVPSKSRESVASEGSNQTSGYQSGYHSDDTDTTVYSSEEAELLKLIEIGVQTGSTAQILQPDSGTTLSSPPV
- test-method-notes: Inhibition of recombinant VEGFR2 (unknown origin) using poly (Glu,Tyr) 4:1 as substrate measured after 45 mins in presence of ATP by microplate reader analysis
# log10 of IC50 values compiled below
// units: nM (pre-log); metric: IC50; scale: log10

Previously resolved entries follow.
given-smiles: CN(C)c1ccc(/C=C2\N=C(c3ccccc3)N(c3ccc(C(=O)OCC(=O)Nc4ccc(S(N)(=O)=O)cc4)cc3)C2=O)cc1
log10 of IC50: 1.30
--
given-smiles: CN(C)c1ccc(/C=C2\N=C(c3ccc(Cl)cc3)N(c3ccc(S(N)(=O)=O)cc3)C2=O)cc1
log10 of IC50: 2.00
--
given-smiles: CN(C)c1ccc(/C=C2\N=C(c3ccc(Cl)cc3)N(c3ccc(C(=O)OCC(=O)Nc4ccc(S(=O)(=O)Nc5nccs5)cc4)cc3)C2=O)cc1
log10 of IC50: 2.04
--
given-smiles: CN(C)c1ccc(/C=C2\N=C(c3ccc(Cl)cc3)N(c3ccc(S(=O)(=O)NC(=N)N)cc3)C2=O)cc1
log10 of IC50: 2.20
--
given-smiles: Cc1cc(NS(=O)(=O)c2ccc(N3C(=O)/C(=C/c4ccc(N(C)C)cc4)N=C3c3ccccc3)cc2)no1
log10 of IC50: 2.15

Asked: API: value(readout=log10 of IC50, system=Vascular endothelial growth factor receptor 2 (Homo sapiens)) for record CN(C)c1ccc(/C=C2\N=C(c3ccc(Cl)cc3)N(c3ccc(S(=O)(=O)Nc4ncccn4)cc3)C2=O)cc1
Given back: 1.85

Asked: Then Cc1cc(NS(=O)(=O)c2ccc(N3C(=O)/C(=C/c4ccc(N(C)C)cc4)N=C3c3ccc(Cl)cc3)cc2)no1 ?
Given back: 2.04

###

- test-method-notes: Selectivity index, ratio of IC50 for human WI-38 cells to IC50 for human MCF7 cells
- Type: toxicity
- condition: WI-38 cells versus MCF7 cells, read-out: Ratio IC50
measurement-label: selectivity ratio
# respond with the number and nothing more

Asked: GET /values?readout=selectivity ratio&item= CN(C)c1ccc(/C=C2\N=C(c3ccc(Cl)cc3)N(c3ccc(S(=O)(=O)Nc4ncccn4)cc3)C2=O)cc1
Given back: 3.69

###

- test-method-notes: Selectivity index, ratio of IC50 for human WI-38 cells to IC50 for human A549 cells
- Type: toxicity
- condition: WI-38 cells versus A549 cells, read-out: Ratio IC50
measurement-label: selectivity ratio
# respond with the number and nothing more

Asked: GET /values?readout=selectivity ratio&item= CN(C)c1ccc(/C=C2\N=C(c3ccc(Cl)cc3)N(c3ccc(S(=O)(=O)Nc4ncccn4)cc3)C2=O)cc1
Given back: 2.88

###

- test-method-notes: Cytotoxicity against HUVECs incubated for 72 hrs by MTT assay
- Format: toxicity, cell-based
- condition: human, HUVEC cells
measurement-label: IC50 at 72 h (µM)
# number only, unit µM dropped from output

compound: CN(C)c1ccc(/C=C2\N=C(c3ccc(Cl)cc3)N(c3ccc(S(=O)(=O)Nc4ncccn4)cc3)C2=O)cc1
measurement-label: IC50 at 72 h
reported-result: 179

Would you kindly look at the next entry?
Asked: GET /values?readout=IC50 at 72 h&item= CNC(=O)c1cc(Oc2ccc(NC(=O)Nc3ccc(Cl)c(C(F)(F)F)c3)cc2)ccn1 [SORAFENIB]
Given back: 89.8
